test system: HepG2; assay: cytotoxicity call (relative viability < 0.9); conditions: 10 µM
About 3,300 (8.5%) of roughly 39,000 compounds were called active. What follows is part of a selection rich in actives, with near analogues and random picks from the rest.
reported.metric: cytotoxicity call

Consider the following illustrative entries.
Record Cc1noc(C)c1NC(=O)N(C)C[C@@H]1OCCCC[C@H](C)Oc2ccc(NC(=O)NC3CCCCC3)cc2C(=O)N([C@@H](C)CO)C[C@@H]1C , field cytotoxicity call: inactive

Entry C[C@H](CO)N1C[C@H](C)[C@H](CN(C)Cc2ccc(Cl)c(Cl)c2)Oc2ccc(NC(=O)C3CCCCC3)cc2CC1=O ; cytotoxicity call = inactive

Please fill in: cytotoxicity call reported for CNS(=O)(=O)c1ccc(Cl)c(C(N)=O)c1 = inactive

# cytotoxicity call (compound: C[C@@H]1CN([C@H](C)CO)C(=O)c2cccc(NS(=O)(=O)c3ccc(F)cc3)c2O[C@@H]1CN(C)Cc1ccncc1 ) is inactive

Query C[C@H]1CN([C@@H](C)CO)C(=O)Cc2cc(NC(=O)Nc3ccc(F)cc3)ccc2O[C@@H]1CN(C)C(=O)Nc1ccc(C(F)(F)F)cc1 yields cytotoxicity call of inactive

Further cases:
Item: O=C(Nc1cc(Cl)ccc1Cl)c1cc(Br)ccc1NS(=O)(=O)c1ccc(Cl)c([N+](=O)[O-])c1 | cytotoxicity call: active

Memo: C=CCNC(=O)[C@@H]1[C@H]2C(=O)O[C@H](c3ccccc3)[C@H](c3ccccc3)N2[C@H](c2ccccc2OCCO)[C@@]12C(=O)Nc1ccc(C#CC3=CCCCC3)cc12 , reported cytotoxicity call: inactive

cytotoxicity call reading for CCCCCCCCNC(C)C(O)c1ccc(SC(C)C)cc1 (stereo not given) : active

Field cytotoxicity call (entry COc1ccc(C#Cc2ccc3c(c2)[C@]2(C(=O)N3)[C@H](c3ccccc3OCCO)N3[C@H](c4ccccc4)[C@H](c4ccccc4)OC(=O)[C@H]3[C@@H]2C(=O)N2CCN(c3ncccn3)CC2)cc1 ) reads active

Entry NS(=O)(=O)c1ccc(Cl)cc1[N+](=O)[O-] — recorded cytotoxicity call = inactive

// C/C=C/C(=O)c1cc(Cl)ccc1O : cytotoxicity call value = inactive

Value source: the antibiotic and cytotoxicity screens of Wong et al. (2023)
